Kindly supply the reported phosphorylation enrichment values for the records listed here.
# subject.of.test: EPHB2 (UniProt P29323)
# Sequence (P29323 whole entry, looked up): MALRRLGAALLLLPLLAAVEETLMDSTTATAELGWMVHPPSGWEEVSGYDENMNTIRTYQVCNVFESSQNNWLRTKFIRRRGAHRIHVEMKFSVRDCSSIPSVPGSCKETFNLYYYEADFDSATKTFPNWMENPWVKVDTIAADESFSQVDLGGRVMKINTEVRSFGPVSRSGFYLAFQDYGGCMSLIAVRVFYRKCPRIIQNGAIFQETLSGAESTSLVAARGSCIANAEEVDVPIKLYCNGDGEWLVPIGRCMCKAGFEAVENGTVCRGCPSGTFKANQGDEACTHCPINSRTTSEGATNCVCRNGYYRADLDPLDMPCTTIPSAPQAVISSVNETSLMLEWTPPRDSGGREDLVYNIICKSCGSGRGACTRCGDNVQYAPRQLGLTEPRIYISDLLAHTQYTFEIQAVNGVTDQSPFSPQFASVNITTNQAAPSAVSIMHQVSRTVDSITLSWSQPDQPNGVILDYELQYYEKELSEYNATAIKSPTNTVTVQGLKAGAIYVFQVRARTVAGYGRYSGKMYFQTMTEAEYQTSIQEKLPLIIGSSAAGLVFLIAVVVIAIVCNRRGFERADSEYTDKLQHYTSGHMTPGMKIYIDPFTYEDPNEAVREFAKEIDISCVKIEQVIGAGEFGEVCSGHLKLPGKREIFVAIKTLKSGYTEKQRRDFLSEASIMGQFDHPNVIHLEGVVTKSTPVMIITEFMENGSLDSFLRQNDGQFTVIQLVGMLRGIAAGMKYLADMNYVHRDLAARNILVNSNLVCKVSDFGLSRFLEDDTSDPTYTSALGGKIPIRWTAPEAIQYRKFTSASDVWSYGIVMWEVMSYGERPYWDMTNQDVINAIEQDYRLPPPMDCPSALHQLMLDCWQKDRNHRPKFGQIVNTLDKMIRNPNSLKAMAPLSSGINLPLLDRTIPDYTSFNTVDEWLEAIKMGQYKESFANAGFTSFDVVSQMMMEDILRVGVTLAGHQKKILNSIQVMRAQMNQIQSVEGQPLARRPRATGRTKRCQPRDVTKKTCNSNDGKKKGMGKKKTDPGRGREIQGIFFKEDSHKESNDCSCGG
# protocol.description: phosphorylation enrichment, bacterial display (enrichment ratio); higher = better substrate or ligand; peptides without Tyr show the background
Could you respond with only the numeric value?

Item under review: AKFPFYEKNKK [FOXL2_Y91] . Reported phosphorylation enrichment?
0.467

Item under review: RDMNAYISPSP [MMAA_Y207_R209S] . Reported phosphorylation enrichment?
0.477

Item under review: SDMGQYQCLVF [AXL_Y115_T112M] . Reported phosphorylation enrichment?
0.991

Item under review: GGKYSYLKVGH [GRM3_Y480] . Reported phosphorylation enrichment?
0.394

Item under review: LFRFGYANTSE [SI_Y1233_C1229Y_YF] . Reported phosphorylation enrichment?
0.585

Item under review: FDDGKYVFVVT [RPS6KA3_Y488_YF] . Reported phosphorylation enrichment?
0.545

Item under review: KAFDMYSGDVM [FAM3D_Y122] . Reported phosphorylation enrichment?
1.15

Item under review: CFSSEYHFVGG [CTSC_Y345_Y340C_YF] . Reported phosphorylation enrichment?
1.96

Item under review: VNFGAYINFFK [GLB1_Y488_D491Y_YF] . Reported phosphorylation enrichment?
0.558

Item under review: `PKDSAYVTWEP` . Reported phosphorylation enrichment?
0.798

* * *

# subject.of.test: EPHB1 (UniProt P54762)
# Sequence (P54762 whole entry, looked up): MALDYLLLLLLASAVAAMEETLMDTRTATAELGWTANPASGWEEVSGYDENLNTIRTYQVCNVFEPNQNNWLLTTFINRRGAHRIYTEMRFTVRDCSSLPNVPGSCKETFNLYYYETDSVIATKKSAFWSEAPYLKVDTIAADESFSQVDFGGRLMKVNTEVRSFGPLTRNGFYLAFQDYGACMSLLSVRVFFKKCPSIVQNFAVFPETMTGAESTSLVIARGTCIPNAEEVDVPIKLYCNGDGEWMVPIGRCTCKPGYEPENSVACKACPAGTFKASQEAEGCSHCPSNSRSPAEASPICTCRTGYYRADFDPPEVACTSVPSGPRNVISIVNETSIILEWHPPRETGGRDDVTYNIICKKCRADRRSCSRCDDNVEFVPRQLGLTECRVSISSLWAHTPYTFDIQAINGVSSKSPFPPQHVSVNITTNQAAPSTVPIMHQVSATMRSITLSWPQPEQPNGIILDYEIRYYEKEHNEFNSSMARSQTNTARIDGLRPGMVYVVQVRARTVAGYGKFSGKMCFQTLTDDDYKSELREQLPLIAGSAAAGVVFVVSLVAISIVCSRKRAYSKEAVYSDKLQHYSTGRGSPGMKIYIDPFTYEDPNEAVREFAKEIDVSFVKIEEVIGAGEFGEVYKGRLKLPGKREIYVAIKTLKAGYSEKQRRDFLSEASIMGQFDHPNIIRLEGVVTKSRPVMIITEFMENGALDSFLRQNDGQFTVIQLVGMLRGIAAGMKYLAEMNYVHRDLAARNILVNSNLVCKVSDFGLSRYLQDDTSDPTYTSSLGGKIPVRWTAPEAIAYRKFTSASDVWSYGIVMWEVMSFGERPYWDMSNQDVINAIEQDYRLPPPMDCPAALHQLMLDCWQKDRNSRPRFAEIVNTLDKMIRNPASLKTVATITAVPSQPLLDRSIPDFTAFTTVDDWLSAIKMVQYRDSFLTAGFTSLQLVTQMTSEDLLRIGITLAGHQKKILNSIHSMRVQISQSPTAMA
# protocol.description: phosphorylation enrichment, bacterial display (enrichment ratio); higher = better substrate or ligand; peptides without Tyr show the background
Kindly supply the reported phosphorylation enrichment values for the records listed here.
Could you respond with only the numeric value?

Item under review: HRGCLYLAIEF [TEK_Y899_Y897C_YF] . Reported phosphorylation enrichment?
0.758

Item under review: PIDLYYLMDLS [ITGB2_Y131] . Reported phosphorylation enrichment?
13.5

Item under review: SHNELYFEAAE [VANGL1_Y344_E347A_YF] . Reported phosphorylation enrichment?
0.509

Item under review: EKKDVYKAGEQ [CFH_Y1008] . Reported phosphorylation enrichment?
0.336

Item under review: DFFDLYGGEKF [PTPN11_Y66_YF] . Reported phosphorylation enrichment?
0.569

Item under review: DWQQEYVLNES [TGM1_Y267_R264Q] . Reported phosphorylation enrichment?
1.42

* * *

# subject.of.test: Fes (UniProt P07332)
# Sequence (P07332 whole entry, looked up): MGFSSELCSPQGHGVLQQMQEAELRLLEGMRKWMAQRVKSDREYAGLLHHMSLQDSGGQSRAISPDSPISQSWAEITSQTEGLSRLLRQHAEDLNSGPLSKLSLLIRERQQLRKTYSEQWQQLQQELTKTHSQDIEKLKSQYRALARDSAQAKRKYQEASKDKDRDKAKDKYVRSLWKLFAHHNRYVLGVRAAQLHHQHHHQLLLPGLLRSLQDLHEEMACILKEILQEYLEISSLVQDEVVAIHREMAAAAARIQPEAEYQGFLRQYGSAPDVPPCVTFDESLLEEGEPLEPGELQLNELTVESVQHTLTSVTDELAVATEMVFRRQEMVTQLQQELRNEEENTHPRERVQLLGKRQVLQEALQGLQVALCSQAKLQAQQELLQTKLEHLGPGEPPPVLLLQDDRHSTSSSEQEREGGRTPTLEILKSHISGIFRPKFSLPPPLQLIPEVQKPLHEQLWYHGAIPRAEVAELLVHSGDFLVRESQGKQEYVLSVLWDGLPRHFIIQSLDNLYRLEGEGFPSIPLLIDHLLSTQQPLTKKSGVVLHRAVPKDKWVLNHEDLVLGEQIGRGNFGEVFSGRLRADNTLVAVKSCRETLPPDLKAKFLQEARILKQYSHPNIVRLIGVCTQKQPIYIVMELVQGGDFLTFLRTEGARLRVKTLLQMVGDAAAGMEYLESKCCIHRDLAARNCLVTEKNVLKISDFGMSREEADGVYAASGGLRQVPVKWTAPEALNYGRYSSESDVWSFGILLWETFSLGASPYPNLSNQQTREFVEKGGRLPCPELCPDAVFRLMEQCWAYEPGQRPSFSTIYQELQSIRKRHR
# protocol.description: phosphorylation enrichment, bacterial display (enrichment ratio); higher = better substrate or ligand; peptides without Tyr show the background
measure: phosphorylation enrichment

phosphorylation enrichment of CPTIHYNYMCN [TP53_Y234_T230P] on Fes (UniProt P07332)?
0.999

phosphorylation enrichment of ASRKYYAMKIL [AKT3_Y174_G171R] on Fes (UniProt P07332)?
0.634

phosphorylation enrichment of YGGLRCGYGVL [KRTAP20-2_Y13_Y13C] on Fes (UniProt P07332)?
1.01

phosphorylation enrichment of PDMHSYVVRYN [GRIN2D_Y732_M733V] on Fes (UniProt P07332)?
1.13

phosphorylation enrichment of DWRQEYVLNEP [TGM1_Y267_S272P] on Fes (UniProt P07332)?
1.13

* * *

# subject.of.test: SHP2-C SH2
# protocol.description: SH2 binding enrichment of the phosphorylated peptide, bacterial display (enrichment ratio); higher = better substrate or ligand; peptides without Tyr show the background
Response field class: string, computed from recorded SH2 binding enrichment by ranges Low (below 0.6), Medium (0.6 to below 0.8), High (0.8 or more)

State the class of the sequence shown: KENITYMKSEQ [L1TD1_Y24_R27S]
Medium

State the class of the sequence shown: RGERPYGGGGG [FUS_Y526_R522G]
Medium

State the class of the sequence shown: VNKLVYENING [FRS2_Y306]
High

State the class of the sequence shown: ISSLDYISKSK [VAV3_Y294_T298S]
Medium

State the class of the sequence shown: LGRGKSSEVFE [CSNK2A1_Y50_Y50S]
Low

State the class of the sequence shown: GNLLIYTEFGN [HGD_Y166_K171N]
Low

State the class of the sequence shown: QELRRYLKSGI [MICA_Y194_V199I]
Low

State the class of the sequence shown: LRNIDYYRLDG [ATRX_Y2083]
High

State the class of the sequence shown: NAPNSYGRRPS [CDKN2A_Y44_I49S]
Low

State the class of the sequence shown: KNDSKYVVKGN [KIT_Y823_N822K]
Medium

State the class of the sequence shown: VKRNRYKDILP [PTPN12_Y64_K61R]
Low

State the class of the sequence shown: CTTIHYDYMCN [TP53_Y234_N235D]
High

State the class of the sequence shown: LQTFRYHGHSM [PDHA1_Y289_YF]
High

State the class of the sequence shown: RKPDIYGRLAS [MCM4_Y459_E460G]
Medium
